Molecular target: mouse TMEM16A mutant I636A (Mus musculus, UniProt Q8BHY3, I636A)
Construct: expressed in transfected cells; host or cells: HEK293T
Sequence (Q8BHY3 1-960 I636A): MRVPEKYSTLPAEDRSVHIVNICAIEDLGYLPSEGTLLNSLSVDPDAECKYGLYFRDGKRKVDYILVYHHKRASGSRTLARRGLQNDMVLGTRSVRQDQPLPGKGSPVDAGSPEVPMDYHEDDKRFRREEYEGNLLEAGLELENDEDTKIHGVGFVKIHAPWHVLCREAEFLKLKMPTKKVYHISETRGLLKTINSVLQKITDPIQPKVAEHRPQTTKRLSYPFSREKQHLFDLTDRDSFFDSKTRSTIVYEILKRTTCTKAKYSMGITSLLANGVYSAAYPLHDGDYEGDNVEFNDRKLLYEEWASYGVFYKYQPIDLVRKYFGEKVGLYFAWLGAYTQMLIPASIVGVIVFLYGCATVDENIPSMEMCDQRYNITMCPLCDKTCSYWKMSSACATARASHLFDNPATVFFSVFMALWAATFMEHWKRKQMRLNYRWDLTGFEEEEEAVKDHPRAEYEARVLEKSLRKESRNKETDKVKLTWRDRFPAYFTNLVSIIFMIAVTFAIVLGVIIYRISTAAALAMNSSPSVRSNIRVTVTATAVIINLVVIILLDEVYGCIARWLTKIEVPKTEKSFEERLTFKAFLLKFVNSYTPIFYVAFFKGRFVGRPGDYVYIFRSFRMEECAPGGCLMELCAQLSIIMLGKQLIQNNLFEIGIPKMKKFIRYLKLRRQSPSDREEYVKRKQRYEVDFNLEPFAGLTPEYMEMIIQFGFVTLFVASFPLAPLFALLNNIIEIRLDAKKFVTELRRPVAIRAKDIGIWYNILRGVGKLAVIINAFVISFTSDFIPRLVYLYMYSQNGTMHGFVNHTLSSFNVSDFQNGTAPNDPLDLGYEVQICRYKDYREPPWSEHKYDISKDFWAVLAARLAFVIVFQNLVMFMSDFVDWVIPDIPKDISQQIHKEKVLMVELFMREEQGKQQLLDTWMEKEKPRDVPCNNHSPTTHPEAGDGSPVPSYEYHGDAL
Assay: Inside-out patch recording of 1PBC block, mutant I636A
Assay type: cell-based
Details: I636A; V 120 mV
measurement.kind: pIC50
Remember the convention: pIC50 equals -log10 of concentration in molar.

Item N#Cc1c(C(F)(F)F)cc(O)n2c1nc1ccccc12 [1PBC] with mouse TMEM16A mutant I636A (Mus musculus, UniProt Q8BHY3, I636A) - pIC50?
5.39
